8OG:A repair function score values by entry
B1: library; numbered along this chain (parent)
chain: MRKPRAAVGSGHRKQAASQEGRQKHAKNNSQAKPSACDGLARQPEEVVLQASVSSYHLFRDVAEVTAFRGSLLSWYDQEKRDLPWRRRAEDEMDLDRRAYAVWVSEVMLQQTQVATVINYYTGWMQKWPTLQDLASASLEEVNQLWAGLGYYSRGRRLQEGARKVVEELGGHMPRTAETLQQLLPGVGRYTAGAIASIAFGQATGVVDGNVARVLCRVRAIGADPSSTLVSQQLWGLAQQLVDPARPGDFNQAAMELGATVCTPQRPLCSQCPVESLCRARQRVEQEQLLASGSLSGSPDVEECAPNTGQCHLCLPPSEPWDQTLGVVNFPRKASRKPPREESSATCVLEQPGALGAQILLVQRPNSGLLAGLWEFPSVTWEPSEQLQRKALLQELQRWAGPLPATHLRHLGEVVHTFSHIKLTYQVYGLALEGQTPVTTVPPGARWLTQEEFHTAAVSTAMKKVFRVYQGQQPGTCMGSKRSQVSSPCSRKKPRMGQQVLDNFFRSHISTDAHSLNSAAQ

- Variants of: B1
- TEST_PROTOCOL: 8OG:A repair function score (normalized; synonymous = 0, nonsense = -1) (normalized log-likelihood score); higher = more repair activity (WT-like);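 further: cells sorted at 72 h after reporter transfection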
- CONDITION_SET: with 8OG:A DNA repair reporter (GFP) in HEK-293 MUTYH KO cells
MEASURE: 8OG:A repair function score

1. E140H :: -0.253
2. T440K :: 0.0852
3. H57M :: -1.63
4. S459M :: -0.693
5. Y120W :: -0.465
6. P442L :: -0.12
7. A192Q :: -1.03
8. E167C :: -0.0723
9. T406L :: -0.249
10. P474T :: 0.0285
11. L109E :: -1.07
12. T460D :: -0.312
13. F418L :: -0.304
14. A245I :: -0.104
15. Q265N :: -0.0302
16. V107P :: -1.01
17. E385P :: -0.17
18. P84M :: -1.8
19. Q426P :: -0.928
20. D91V :: 0.0064
21. R175K :: -0.133
22. L396S :: -0.52
23. Q358A :: -0.219
24. S231P :: -0.683
25. L49T :: 0.0602
26. N517G :: 0.0215
27. P377L :: -0.733
28. A223Y :: -0.608
29. Q521V :: -0.0096
30. G353I :: -0.129
31. L408T :: -0.417
